System: LOX IMVI melanoma
Experiment: NCI tumour cell line growth inhibition, 48 h; in the data active = GI50 below about 0.43 µM; inactive = the rest
Returns: one label drawn from yes (1) (active), no (0) (inactive)

These recorded examples may help you get a feel for the data.
molecule	study.system	category
O=S1(=O)N(Cc2ccccc2)[C@@H](Cc2ccccc2)[C@H](O)[C@H](O)[C@H](Cc2ccccc2)N1Cc1ccccc1	LOX IMVI melanoma	no (0)
COc1ccc(NC(=O)/C=C(C)/C=C/C=C(C)/C=C/C2=C(C)CCCC2(C)C)cc1	LOX IMVI melanoma	no (0)
O=C(/C=C/c1ccc(C(F)(F)F)cc1)Nc1ccc(C=C2c3ccccc3C(=O)c3ccccc32)cc1	LOX IMVI melanoma	no (0)
O=C(Nc1ccc(-n2ccc3c(NC(=O)c4ccccc4)ncnc32)cc1)c1cccc(C(F)(F)F)c1	LOX IMVI melanoma	yes (1)
C#CCNC(=S)N/N=C(\C)c1ccccn1	LOX IMVI melanoma	no (0)

Task item: Call for entry `CN1CCN(CCOc2ccc(-c3cnc4c(-c5cccc(F)c5)cnn4c3)cc2)CC1` :
Reply: no (0)

Task item: Call for entry CN(C)CCNC(=O)c1ccc(-c2nc3ccc4[nH]ncc4c3c3c2C2CCC3C2)cc1 (configuration not stated) :
Reply: no (0)

Task item: Call for entry `CN1CCN(Cc2ccc(NC(=O)c3cncc(C#Cc4cnc(N)cc4C#N)c3)cc2C(F)(F)F)CC1` :
Reply: no (0)

Task item: Call for entry `COc1cc2ncnc(-n3ncc4cc(NC(=O)Nc5ccc(Cl)c(Cl)c5)ccc43)c2cc1OC` :
Reply: no (0)

Task item: Call for entry `Cc1cc(Nc2nc(C(=O)Nc3ccccc3)nc3ccccc23)n[nH]1` :
Reply: no (0)

Task item: Call for entry C=C(C)C1CC/C(C)=C/CC[C@]2(C)O[C@@H]2CCC2=CC1OC2=O (some centres not stated) :
Reply: no (0)

Task item: Call for entry `COc1cccc(CN(C)c2ccc(CO)c(Cl)c2)c1` :
Reply: no (0)

----------
For each record, write down the corresponding TGI.
Tested on: HS 578T breast
Assay: NCI tumour cell line growth inhibition, 48 h

Worked examples follow.
molecule	TGI
Nc1ccc(Nc2cc(=O)[nH]c(=O)[nH]2)cc1	> 100 µM
CCCCCCCCCC(=O)N[C@@H](c1ccco1)[C@@H](O)C(=O)O[C@H]1C[C@@]2(O)[C@@H](OC(=O)c3ccccc3)[C@@H]3[C@]4(OC(C)=O)CO[C@@H]4C[C@H](O)[C@@]3(C)C(=O)[C@H](OC(C)=O)C(=C1C)C2(C)C	0.0857 µM
O=C(/C=C/c1ccc(C(F)(F)F)cc1)Nc1ccc(C=C2c3ccccc3C(=O)c3ccccc32)cc1	> 100 µM
CCOc1ccc(N=NC2C(=O)N(C(=O)CC(=O)Nc3ccccc3)N=C2C)cc1 (stereo not given)	87.3 µM
COC(=O)CCc1c(Cc2ccc[nH]2)[nH]c(C(=O)OCc2ccccc2)c1C	88.5 µM
CCOc1ccc(/C(C=O)=C(\Cl)c2ccc(OC)cc2)cc1	> 100 µM

For every listed record, write down its TGI.
1. COc1ccc(/C=C/C(=O)c2ccc(-n3cc(CN4CCN(c5cc6c(cc5F)c(=O)c(C(=O)O)cn6C5CC5)CC4)nn3)cc2)cc1OC
2. NC(=O)c1cc(N(CCO)CCO)c([N+](=O)[O-])cc1[N+](=O)[O-]
3. O=c1[nH]c(=O)n(COCCO)c2ccsc12
4. Cn1cccc1-c1cc(-c2ccccc2)[nH]c(=O)c1C#N
5. CCOC(=O)NNC(=O)NCc1ccccc1CNC(=O)NNC(=O)OCC
6. Nc1nccc(NCC2(CO)CCC2)n1
7. COc1ccc(Nc2nc3ccccc3c3occc23)cc1

Reply:
1: > 100 µM; 2: > 100 µM; 3: > 100 µM; 4: > 100 µM; 5: > 100 µM; 6: > 100 µM; 7: 16.3 µM

These data points were gathered from PubChem BioAssay (NCI).
